system: Candida albicans B 311; experiment: disc diffusion, zone of inhibition on seeded agar plates; format: cell-based; details: Table II; YNB agar, lysine; composition of aculeacin A 1 µg + fatty acid 1000 µg; 16-18 h, 37°C
Listing of recorded Zone Size YNB agar by entry.
Write down the numeric answer in mm and omit the unit.

# count of solved cases: 8
{"columns": ["Molecule", "Measure Name", "Measured Result"],
 "data": [
  ["CCCCCCCC/C=C\\CCCCCCCC(=O)O [Oleic Acid]", "Zone Size YNB agar", 35],
  ["CCCCCCCC/C=C/CCCCCCCC(=O)O [Eladic Acid]", "Zone Size YNB agar", 13],
  ["CCCCC/C=C/C/C=C/CCCCCCCC(=O)O [Linoelaidic Acid]", "Zone Size YNB agar", 16],
  ["CCCCCCCCCCCCCCCCCCCCCC(=O)O [Behenic Acid]", "Zone Size YNB agar", 15],
  ["CCCCC/C=C\\C/C=C\\C/C=C\\C/C=C\\CCCC(=O)O [Arachidonic Acid]", "Zone Size YNB agar", 26],
  ["CCCCCCCCCCC(O)C(=O)O (stereo not drawn) [α-Hydroxy Lauric Acid]", "Zone Size YNB agar", 25],
  ["CCCCCC/C=C/CCCCCCCC(=O)O [Palmitelaidic Acid]", "Zone Size YNB agar", 20],
  ["CCCCCCCC/C=C\\CCCCCCCCCCCC(=O)O [Erucic Acid]", "Zone Size YNB agar", 15]
]}

# context switch: different molecule, same Zone Size YNB agar
In: Determine from records and report Zone Size YNB agar for CCCCCC/C=C/CCCCCCCCCC(=O)O [Vaccinic Acid]
Out: 17
